src = paper PMC9482650

EXPERIMENTAL SYSTEM: T1, LIN7A, O14910
T1 sequence (O14910 103-200, limits assumed, looked up): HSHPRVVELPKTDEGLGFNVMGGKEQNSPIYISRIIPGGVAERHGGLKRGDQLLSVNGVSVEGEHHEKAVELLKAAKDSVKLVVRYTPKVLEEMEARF
PROTOCOL NOTES: holdup assay
Set-up: key: below the threshold = too weak to quantify, mostly under pKd 3.1 to 4
ASSAY CONDITIONS: plain residues with an end cap or a label only (N-terminal biotin on a linker: ado-ado)
ENDPOINT LABEL: pKd

// known answers, use as guide
{"BINDER": "VKPQVSESKL [ACOT8, O14734]", "pKd": "below the threshold"}
{"BINDER": "EALLQMESVA [CAVIN3, Q969G5]", "pKd": "below the threshold"}
{"BINDER": "KSGKQTMLVV [TRIM29, Q14134;Q14134-2]", "pKd": "below the threshold"}
{"BINDER": "KKMPSIESDV [GRIN2A, Q12879]", "pKd": "below the threshold"}

Just so you know, measured pKd for TACCHSETVV [TGFA, P01135] came out at 3.51

The recorded pKd for RRRESYSTTV [EVI5, O60447] is below the threshold
